Tested on: DLD-1
Test: NCI tumour cell line growth inhibition, 48 h
Active and inactive are the calls of the source. Cut-off read from the data, not from the text of the source: active = GI50 up to about 1.1 µM and inactive = higher.
Classes used: active, inactive

{"molecule": "COc1ccc(/C(=N\\NC(=S)NN)C(c2ccc(OC)cc2)C2C(=O)Oc3ccccc32)cc1 (stereo not given)", "answer-label": "inactive"}
{"molecule": "C=C1C(=O)OC2CC1CCC1(C)OC1CCC(C)=CCCC2(C)O (stereo not given)", "answer-label": "inactive"}
{"molecule": "COc1cc(/C=C/c2ccc(/C=C/c3cc(OC)c(OC)c(OC)c3)cc2)cc(OC)c1OC", "answer-label": "inactive"}
{"molecule": "FC(F)(F)c1nc(-c2ccccc2)oc1Sc1nnc(Sc2oc(-c3ccccc3)nc2C(F)(F)F)s1", "answer-label": "inactive"}
{"molecule": "CC(=O)Nc1ccc(C(=O)NN2C(=O)C(Cl)/C2=C/c2ccco2)cc1 (stereo not given)", "answer-label": "inactive"}
{"molecule": "O=[N+]([O-])c1ccc(N2N=C(c3ccc(NCc4nc5ccccc5[nH]4)cc3)CC2c2ccco2)cc1 (stereo not given)", "answer-label": "inactive"}
{"molecule": "CC(C)C(/N=C1\\CC2CCC1(C(=O)Nc1ccccc1O)C2(C)C)c1ccccc1 (stereo not given)", "answer-label": "inactive"}
{"molecule": "O=C1C=CC(=O)c2c(Cl)ccc(O)c21", "answer-label": "inactive"}
{"molecule": "CCN(CC)Cc1cc(Nc2c3ccccc3nc3c4ccccc4n(C)c23)ccc1O", "answer-label": "inactive"}
{"molecule": "NNC(=O)CNC(=O)c1ccc(Cl)cc1Cl", "answer-label": "inactive"}
{"molecule": "c1ccc2c(C3NCCc4nc[nH]c43)cccc2c1 (stereo not given)", "answer-label": "inactive"}
{"molecule": "C[C@]12CCC[C@H](O)[C@H]1C[C@H](CO)CC2", "answer-label": "inactive"}
{"molecule": "CC(C)(Oc1ccc(C(=O)c2ccc(Cl)cc2)cc1Cl)C(=O)N1CCN(c2ccccc2)CC1", "answer-label": "inactive"}
{"molecule": "CN(C)C(=S)/N=c1\\ssc(=S)n1Cc1cccnc1", "answer-label": "inactive"}
{"molecule": "O=C1c2ccccc2N(O)C1(c1ccccc1)C1CCCC=C1N1CCOCC1 (stereo not given)", "answer-label": "inactive"}
{"molecule": "C=CCc1cc2cccc(OC)c2oc1=O", "answer-label": "inactive"}
{"molecule": "COc1cc(/C=C/c2ccc(Br)cc2)cc(OC)c1OC", "answer-label": "inactive"}
{"molecule": "CCOC(=O)C(=O)Nc1ccccc1OCC", "answer-label": "inactive"}
{"molecule": "C/C(=N/NC(=O)C[n+]1ccccc1)C(CN(CC(C)C)CC(C)C)C(=O)Nc1ccc(C)cc1C (stereo not given)", "answer-label": "inactive"}
{"molecule": "COC1C(O)C(C)OC(OC2C(Oc3cccc4c(O)c5c(=O)oc6ccc(C)c7c(=O)oc(c34)c5c67)OC(C)C3O[C@H](c4ccccc4)OC32)C1O (stereo not given in full)", "answer-label": "active"}
{"molecule": "COc1ccc(OC)c2c(C(=O)O)c(C(C)c3ccccc3)ccc12 (stereo not given)", "answer-label": "inactive"}
{"molecule": "COc1nc(C(=O)O)c(Cl)c(OC)c1Cl", "answer-label": "inactive"}
{"molecule": "N#Cc1ccccc1Nc1ccccc1S", "answer-label": "inactive"}
{"molecule": "COc1cccc(/C(Cl)=C(\\C=O)c2cccc(OC)c2)c1", "answer-label": "inactive"}
{"molecule": "OCCCCCCOc1ccc(-c2cc(-c3ccccn3)nc(-c3ccccn3)c2)cc1", "answer-label": "active"}
{"molecule": "COc1ccc2oc3cccc(NCCN(C)C)c3c(=O)c2c1", "answer-label": "inactive"}
{"molecule": "CCOC(=O)/C=C/n1c2ccccc2c(=O)c2ccccc21", "answer-label": "inactive"}
{"molecule": "CCC1CN2CCc3cc(OC)c(OC)cc3C2CC1CC1c2cc(OC)c(OC)cc2CCN1C(=O)C1CCCN1 (stereo not given)", "answer-label": "inactive"}
{"molecule": "CCC1OCCN1C(C)C (stereo not given)", "answer-label": "inactive"}
{"molecule": "COC1C(N)C(OC2C(Oc3cccc4c(O)c5c(=O)oc6ccc(C)c7c(=O)oc(c34)c5c67)OC(C)C(O)C2(C)O)OC(C)C1O (stereo not given)", "answer-label": "active"}
{"molecule": "C=C1C2CCCC1C1(S(C)(=O)=O)CCCCC21O (stereo not given)", "answer-label": "inactive"}
{"molecule": "COC(=O)/N=C(\\NC(=O)OC)Nc1ccc(Oc2ccccc2)cc1NC=O", "answer-label": "active"}
{"molecule": "C=C[C@H]1C=Cc2c(OC)cccc2[C@@H]1COP1(=S)NC(C)C(c2ccccc2)O1 (stereo not given in full)", "answer-label": "inactive"}
{"molecule": "O=C(NCCCl)SCCO", "answer-label": "inactive"}
{"molecule": "O=c1nc(NC(c2ccccc2)(c2ccccc2)c2ccccc2)ccn1CCCl", "answer-label": "inactive"}

----------
System: HCT-15
This section presents molecules with their documented GI50 values.

{"molecule": "CC1=CC[C@H](C(C)C)C(C(O)[C@@H](C)O[Si](c2ccccc2)(c2ccccc2)C(C)(C)C)C1=O (stereo not given in full)", "measurement-units": "µM", "reported-relation": "=", "GI50": 13.9}
{"molecule": "COc1ccc(-c2oc3cc(OC)c(OC)c(O)c3c(=O)c2OC)cc1", "measurement-units": "µM", "reported-relation": "=", "GI50": 40.5}
{"molecule": "O=c1oc2ccccc2cc1/C=N/N1C(=S)N(c2ccccc2)C(=N\\c2ccccc2)/C1=N/c1ccccc1", "measurement-units": "µM", "reported-relation": ">", "GI50": 100}
{"molecule": "COC(=O)[C@@H](Cc1ccccc1)N1O[C@]12CCCC[C@@H]2NC(=O)OC(C)(C)C (stereo not given in full)", "measurement-units": "µM", "reported-relation": "=", "GI50": 18.4}
{"molecule": "NC(=O)COC(=O)c1c(Cl)nc2sccn12", "measurement-units": "µM", "reported-relation": ">", "GI50": 40.3}

----------
Test system: SK-MEL-2
Assay: NCI tumour cell line growth inhibition, 48 h
Active and inactive are the calls of the source. No stated cut-off is given here; in the data, active = GI50 up to about 1.1 µM and inactive = higher.
Classes used: class 1 (active), class 0 (inactive)

{"compound": "COc1ccc(C)cc1-c1ccc(-c2cc(C)ccc2OC)o1", "experimental-system": "SK-MEL-2", "answer-label": "class 0"}
{"compound": "Cc1c(/C=N/NC(=S)Nc2ccc([N+](=O)[O-])cc2)c(=O)n(-c2ccccc2)n1C", "experimental-system": "SK-MEL-2", "answer-label": "class 0"}
{"compound": "CC1CC/C(=C\\c2ccc(N(C)C)cc2)C2=C1C(c1ccc(N(C)C)cc1)NC(=S)N2 (stereo not given)", "experimental-system": "SK-MEL-2", "answer-label": "class 0"}
{"compound": "C=C1C2CCCC1C1(S(C)(=O)=O)CCCCC21O (stereo not given)", "experimental-system": "SK-MEL-2", "answer-label": "class 0"}
{"compound": "COC(=O)c1ccccc1C1CN=NC12Cc1c(ccc(C)c1C)C2=O (stereo not given)", "experimental-system": "SK-MEL-2", "answer-label": "class 0"}
{"compound": "COc1ccc(-c2oc3cc(OC)c(OC)c(O)c3c(=O)c2OC)cc1", "experimental-system": "SK-MEL-2", "answer-label": "class 0"}
{"compound": "O=c1oc2ccccc2cc1/C=N/N1C(=S)N(c2ccccc2)C(=N\\c2ccccc2)/C1=N/c1ccccc1", "experimental-system": "SK-MEL-2", "answer-label": "class 0"}
{"compound": "CC1=C(C#N)C(=C(C#N)C#N)OC1(C)Cc1ccccc1 (stereo not given)", "experimental-system": "SK-MEL-2", "answer-label": "class 0"}
{"compound": "c1ccc(C(=NNc2nc3ccccc3o2)c2ccccn2)nc1", "experimental-system": "SK-MEL-2", "answer-label": "class 1"}
{"compound": "COc1cc(Br)c(CC2C3=C(CCN2C(=O)C2CCC2)CC2(CC3)OCCO2)cc1O (stereo not given)", "experimental-system": "SK-MEL-2", "answer-label": "class 0"}

----------
System: HOP-92
Assay: NCI tumour cell line growth inhibition, 48 h
Calls of active or inactive are those of the source. Rule as the data show it: active = GI50 up to about 1.1 µM and inactive = higher.
Classes used: active, inactive

{"compound": "COC(=O)C(=Cc1cc(OC)ccc1OC)C(=O)OC", "answer-label": "inactive"}
{"compound": "Cn1cc(-c2csc(-c3cn(C)c4ccccc34)n2)c2ccccc21", "answer-label": "inactive"}
{"compound": "Cc1ccc(-c2nc3cc([N+](=O)[O-])ccc3[nH]2)cc1", "answer-label": "inactive"}
{"compound": "COc1cc2c(ccc3c4cc(OC)c(OC)cc4c[n+](C)c23)cc1O [FAGARONINE]", "answer-label": "inactive"}
{"compound": "O=C(NCCc1n[nH]c2c1C(=O)C=C(Nc1ccccc1)C2=O)OCc1ccccc1", "answer-label": "inactive"}
{"compound": "C=C1C2CCCC1C1(S(C)(=O)=O)CCCCC21O (configuration not stated)", "answer-label": "active"}
{"compound": "CNC(=O)Nc1ccccc1", "answer-label": "inactive"}
